conditions: in NMP, 296.73 K
Assay endpoint: solubility (mole fraction)
Lab note: record just the number, no unit beside it.

[in] Fill in the blank: the reported solubility (mole fraction) of `COC(=O)c1ccc2cc(C(=O)OC)ccc2c1` is ____.
[out] 0.00577

* * *

conditions: in NMP, 311.81 K
Assay endpoint: solubility (mole fraction)
Lab note: record just the number, no unit beside it.

[in] Fill in the blank: the reported solubility (mole fraction) of `COC(=O)c1ccc2cc(C(=O)OC)ccc2c1` is ____.
[out] 0.00687

* * *

conditions: in acetic acid, 295.65 K
Assay endpoint: solubility (mole fraction)
Lab note: record just the number, no unit beside it.

[in] Fill in the blank: the reported solubility (mole fraction) of `COC(=O)c1ccc2cc(C(=O)OC)ccc2c1` is ____.
[out] 0.000621
